Km: recorded values
systemUnderTest: MDR1 (P-glycoprotein, ABCB1) (Homo sapiens, UniProt P08183)
Sequence (P08183 whole entry): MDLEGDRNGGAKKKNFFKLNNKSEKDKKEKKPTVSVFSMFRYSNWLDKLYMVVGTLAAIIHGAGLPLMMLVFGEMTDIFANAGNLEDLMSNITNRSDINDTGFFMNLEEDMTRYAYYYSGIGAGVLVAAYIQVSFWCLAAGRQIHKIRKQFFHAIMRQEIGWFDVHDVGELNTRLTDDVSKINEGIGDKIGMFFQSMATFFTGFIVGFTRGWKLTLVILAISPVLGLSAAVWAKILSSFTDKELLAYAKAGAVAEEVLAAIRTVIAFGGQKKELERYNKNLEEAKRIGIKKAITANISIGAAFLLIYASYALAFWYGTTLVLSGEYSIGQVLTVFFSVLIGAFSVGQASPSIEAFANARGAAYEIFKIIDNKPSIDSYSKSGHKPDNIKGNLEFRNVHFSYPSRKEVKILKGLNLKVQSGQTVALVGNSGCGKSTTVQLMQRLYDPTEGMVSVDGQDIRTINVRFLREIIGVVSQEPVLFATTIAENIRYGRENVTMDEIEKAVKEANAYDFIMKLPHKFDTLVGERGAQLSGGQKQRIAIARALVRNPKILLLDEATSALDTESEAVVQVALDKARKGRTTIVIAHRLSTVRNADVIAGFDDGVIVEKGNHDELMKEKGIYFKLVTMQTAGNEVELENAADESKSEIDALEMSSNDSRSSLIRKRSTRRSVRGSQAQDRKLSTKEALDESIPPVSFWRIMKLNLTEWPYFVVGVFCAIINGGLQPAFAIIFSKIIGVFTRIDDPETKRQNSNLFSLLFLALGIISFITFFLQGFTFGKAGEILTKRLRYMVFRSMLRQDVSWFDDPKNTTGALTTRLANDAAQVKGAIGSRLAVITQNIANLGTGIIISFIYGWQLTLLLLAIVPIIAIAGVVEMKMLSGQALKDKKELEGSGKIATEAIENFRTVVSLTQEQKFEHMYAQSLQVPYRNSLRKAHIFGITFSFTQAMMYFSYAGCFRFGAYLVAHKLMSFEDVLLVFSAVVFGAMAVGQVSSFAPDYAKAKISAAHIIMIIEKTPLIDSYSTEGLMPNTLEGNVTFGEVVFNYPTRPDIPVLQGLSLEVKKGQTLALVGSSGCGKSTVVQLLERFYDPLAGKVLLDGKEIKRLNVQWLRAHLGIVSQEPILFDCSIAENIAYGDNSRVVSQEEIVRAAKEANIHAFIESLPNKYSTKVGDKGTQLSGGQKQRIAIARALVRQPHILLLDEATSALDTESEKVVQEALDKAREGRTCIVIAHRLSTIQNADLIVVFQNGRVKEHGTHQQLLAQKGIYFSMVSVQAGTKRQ
method: TP_TRANSPORTER: ATP hydrolysis in membranes from MDR1-expressing insect cells
Assay type: functional, cell membranes, insect cell, Membrane
parameter: Km

>  <compound>
Cc1cc2c(s1)Nc1ccccc1N=C2N1CCN(C)CC1 [OLANZAPINE]

>  <parameter>
Km

>  <result>
8.3 µM

$$$$
>  <compound>
O=C(CCCN1CCC(O)(c2ccc(Cl)cc2)CC1)c1ccc(F)cc1 [HALOPERIDOL]

>  <parameter>
Km

>  <result>
33 µM

$$$$
>  <compound>
CN(C)CCCN1c2ccccc2Sc2ccc(Cl)cc21 [CHLORPROMAZINE]

>  <parameter>
Km

>  <result>
27.4 µM

$$$$
